Cited source: ChEMBL document CHEMBL1157699

- METHOD: Toxicity in Poecilia reticulata assessed as mortality at 22.8 ug/ml after 48 hrs
- Format: organism-based
- SETUP CONDITIONS: in vivo, read-out: Activity
QUANTITY: mortality at 48 h, 22.8 ug/ml

INSERT INTO measurements (substance, observed_measurement) VALUES
  ('H-RQWKKWWQWRR-NH2', '0%');

* * *

- Tested on: Cryptococcus neoformans
- METHOD: Antifungal activity against Cryptococcus neoformans ATCC 32264 assessed as inhibition of fungal growth at 6.25 uM after 48 hrs by microbroth dilution method
- Assay type: functional
- SETUP CONDITIONS: ATCC 32264, 48 h
Residues, ends and D or L forms follow the SMILES beside them.
Use 1 when the recorded inhibition at 6.25 µM is no lower than 5%; use 0 when it is lower.

INSERT INTO measurements (compound, class_name) VALUES
  ('CC[C@H](C)[C@H](NC(=O)[C@@H](N)CCCCN)C(=O)N[C@@H](CCC(N)=O)C(=O)N[C@@H](CCCNC(=N)N)C(N)=O (H-KIQR-NH2)', 1),
  ('CC[C@H](C)[C@H](NC(=O)[C@H](CCC(N)=O)NC(=O)[C@@H](N)CCCNC(=N)N)C(=O)N[C@@H](CCCCN)C(N)=O (H-RQIK-NH2)', 1),
  ('C[C@H](NC(=O)[C@H](CCC(N)=O)NC(=O)[C@@H](N)CCCNC(=N)N)C(=O)N[C@@H](CCCCN)C(N)=O (H-RQAK-NH2)', 0),
  ('C[C@H](N)C(=O)N[C@@H](C)C(=O)N[C@@H](C)C(=O)N[C@@H](CCCCN)C(N)=O (H-AAAK-NH2)', 0),
  ('CC[C@H](C)[C@H](NC(=O)[C@H](CCC(N)=O)NC(=O)[C@@H](N)CCCCN)C(=O)N[C@@H](CCCCN)C(N)=O (H-KQIK-NH2)', 0),
  ('CC(=O)N1CCN(c2ccc(OCC3COC(Cn4ccnc4)(c4ccc(Cl)cc4Cl)O3)cc2)CC1 (configuration not stated) [KETOCONAZOLE]', 1);
